Origin of measurements: ChEMBL document CHEMBL5058577

System: HEK-293T
Assay procedure: Multiplex assay against HEK293T
Format: toxicity, cell-based
Condition description: human, 12 h, 10 µM, compound concentration 10 uM, replicate 1
Attribute measured: Population Healthy Nuclei (%)

> print(dat)
                                   compound  result.units  quantitative.result
1         CN1CCN(c2cc(-c3ccccc3)nc(N)n2)CC1             %                   82
2        CCCOc1ccc2[nH]cc(C3=CCNCC3)c2n1.Cl             %                   78
3  CC(/C=C1\SC(=S)N(CCCC(=O)Nc2ccc(C(=O)O)c(O)c2)C1=O)=C\c1ccccc1             %                   76
4  CC(C)c1noc(N2CCC(COc3ccc(-c4ccc(S(C)(=O)=O)cc4)nc3)CC2)n1             %                   71
5  COC[C@@H](c1ccc(C(F)(F)F)cc1)N1CCN(C2(C)CCN(C(=O)c3c(C)ncnc3C)CC2)C[C@@H]1C.O=C(O)/C=C\C(=O)O [VICRIVIROC MALEATE]             %                   75
6  Cc1noc(-c2ccc(-c3ccc(CC(=O)O)cc3)cc2)c1NC(=O)O[C@H](C)c1ccccc1Cl             %                   68
